TEST_NAME: Cytotoxicity against human Huh7.5 cells measured after 48 hrs by MTS assay
Format: toxicity, cell-based, Huh-7
RECORDED_CONDITIONS: Huh7.5 cells
MEASUREMENT_TYPE: CC50 at 48 h

Worked cases, answers included:
{"MOLECULE": "CCOC(=O)[C@@H]1C[C@@H]2NC(=O)CCCC[C@@H]2N1S(=O)(=O)c1ccc(C)cc1 (racemic)", "CC50 at 48 h": "143 µM"}
{"MOLECULE": "Cc1ccc(S(=O)(=O)N2[C@H](C(N)=O)C[C@@H]3C(=O)CCCC[C@@H]32)cc1 (racemic)", "CC50 at 48 h": "> 200 µM"}
{"MOLECULE": "CCOC(=O)[C@@H]1C[C@@H]2C(=O)CCCC[C@H]2N1S(=O)(=O)c1ccc(C)cc1 (racemic)", "CC50 at 48 h": "> 200 µM"}

Now consider the entry below.
State the recorded CC50 at 48 h for this entry: CCOC(=O)[C@@H](C)N1CC[C@H]2C(=O)CCCC[C@@H]21 > 100 µM

* * *

TEST_NAME: Cytotoxicity against human Huh7.5 cells measured after 48 hrs by MTS assay
Assay type: toxicity, cell-based, Huh-7
RECORDED_CONDITIONS: Huh7.5 cells
Each entry below carries its reported CC50 at 48 h.

{"COMPOUND": "CCOC(=O)[C@@H]1C[C@@H]2C(=O)CCCC[C@@H]2N1S(=O)(=O)c1ccc(C(C)(C)C)cc1 (racemic)", "CC50 at 48 h": "> 200 µM"}
{"COMPOUND": "O=C1CCCC[C@@H]2[C@H](C[C@H](Cc3ccccc3)N2Cc2ccccc2)N1 (racemic)", "CC50 at 48 h": "> 50 µM"}
{"COMPOUND": "CC(C)(C)OC(=O)N1CC[C@@H]2NC[C@H](c3ccccc3)[C@H]2C(=O)C1.Cl (racemic)", "CC50 at 48 h": "> 150 µM"}

Now consider the entry below.
State the recorded CC50 at 48 h for this entry: CCOC(=O)[C@H]1C[C@H]2C(=O)CCCC[C@H]2N1S(=O)(=O)c1ccc(C)cc1 (racemic) > 200 µM
